# Experiment Description: Solubility of compound in JP1 at pH 1.2 using UV assay
# Assay type: physicochemical
# Recorded Conditions: JP1, pH 1.2
Answer each item with its documented solubility.
Kindly answer with a numeric value in µg/mL, unit omitted.

// solubility lookup, molecule = CC(=O)O[C@@]12CO[C@@H]1CC[C@@]1(C)[C@@H]3O[C@H](CN4CCOCC4)O[C@@H]3C3=C(C)[C@@H](OC(=O)[C@](C)(O)[C@@H](NC(=O)OC(C)(C)C)c4ccccn4)C[C@@](O)([C@@H](OC(=O)c4ccccc4)[C@@H]12)C3(C)C , result: 1800

get_value(item= CC(=O)O[C@@]12CO[C@@H]1CC[C@@]1(C)[C@@H]3O[C@H](CN4CCOCC4)O[C@@H]3C3=C(C)[C@@H](OC(=O)[C@H](O)[C@@H](NC(=O)OC(C)(C)C)c4ccccn4)C[C@@](O)([C@@H](OC(=O)c4ccccc4)[C@@H]12)C3(C)C , readout=solubility) returns 1700

// field: solubility; key: CC(=O)O[C@@]12CO[C@@H]1CC[C@@]1(C)[C@@H]3O[C@H](CN4CCOCC4)O[C@@H]3C3=C(C)[C@@H](OC(=O)[C@H](O)[C@@H](NC(=O)OC(C)(C)C)c4ccccc4)C[C@@](O)([C@@H](OC(=O)c4ccccc4)[C@@H]12)C3(C)C ; value = 1200

// solubility lookup, molecule = CC(=O)O[C@@]12CO[C@@H]1CC[C@@]1(C)[C@@H]3O[C@H](CN4CCOCC4)O[C@@H]3C3=C(C)[C@@H](OC(=O)[C@](C)(O)[C@@H](NC(=O)OC(C)(C)C)c4ccccc4)C[C@@](O)([C@@H](OC(=O)c4ccccc4)[C@@H]12)C3(C)C , result: 350
